Ref: the supplement of paper PMC4466140

- assayed.target: SpMyo1
- assay.summary: SPOT peptide array binding signal intensity (averaged, normalized) (arbitrary units (background-subtracted, floor 0; scale differs between SH3 domains)); higher = stronger binding of the SH3 domain to the peptide
Could you please classify the records by SPOT peptide array binding signal intensity using these ranges: bucket A (below 7), bucket B (7 to below 90), bucket C (90 or more)

Into which bin does this binder go? "LKHGWKPLRPIKLIS" bucket A

Now consider "QRIRKIPGIPLMSVG" and answer again. bucket A

Now consider "QTMRQAPKRPDADVA" and answer again. bucket C

Now consider "AHFQPQRTAPKPPIS" and answer again. bucket C

Now consider "TIRRRAPLSLLESHT" and answer again. bucket A

Now consider "RRRDFGAPANKRPRR" and answer again. bucket B

Now consider "VFQFQMPTTPISTKM" and answer again. bucket B

Now consider "RKLRTVPGVPLIHLT" and answer again. bucket A

Now consider "YVRRRPRVRLEPLLS" and answer again. bucket A

Now consider "PPLPRAPPVPPATFE" and answer again. bucket C

Now consider "PVLPPPRSPNRPTLS" and answer again. bucket B

Now consider "SRSKPLPLTPNSKYN" and answer again. bucket B

Now consider "GQYRRTIVIPRRFFT" and answer again. bucket A
